# test.system: PEST (Homo sapiens, UniProt Q05209)
# Sequence (Q05209 whole entry): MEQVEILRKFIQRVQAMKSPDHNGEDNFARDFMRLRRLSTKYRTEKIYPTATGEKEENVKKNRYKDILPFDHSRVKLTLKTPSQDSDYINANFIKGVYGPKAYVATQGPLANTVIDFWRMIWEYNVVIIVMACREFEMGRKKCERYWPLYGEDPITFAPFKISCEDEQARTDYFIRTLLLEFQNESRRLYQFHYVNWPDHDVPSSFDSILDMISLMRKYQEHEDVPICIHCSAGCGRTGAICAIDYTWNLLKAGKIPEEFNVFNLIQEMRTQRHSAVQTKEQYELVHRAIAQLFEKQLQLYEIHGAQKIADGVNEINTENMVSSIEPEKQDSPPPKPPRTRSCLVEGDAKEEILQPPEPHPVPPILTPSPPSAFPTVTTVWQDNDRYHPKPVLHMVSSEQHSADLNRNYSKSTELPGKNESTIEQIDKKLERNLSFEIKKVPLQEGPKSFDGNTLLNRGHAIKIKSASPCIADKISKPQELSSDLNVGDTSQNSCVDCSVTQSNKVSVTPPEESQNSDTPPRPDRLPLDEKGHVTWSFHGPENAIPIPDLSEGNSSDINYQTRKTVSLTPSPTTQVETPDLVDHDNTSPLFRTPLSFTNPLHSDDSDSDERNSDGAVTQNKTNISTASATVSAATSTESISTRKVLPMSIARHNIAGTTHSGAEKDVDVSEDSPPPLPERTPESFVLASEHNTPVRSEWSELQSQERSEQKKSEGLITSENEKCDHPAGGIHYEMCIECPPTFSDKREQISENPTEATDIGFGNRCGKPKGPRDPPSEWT
# protocol.notes: PEST inhibition, pNPP substrate
# Type: biochemical
measurement.label: pIC50
API: returns pIC50 as number; meaning -log10 of concentration in mol/L.

pIC50 of O=C(Nc1nnc(-c2ccc(Br)cc2)s1)C(c1ccccc1)S(=O)(=O)O (stereo not shown) [Compound L319M79] on PEST (Homo sapiens, UniProt Q05209)?
4.58

====

# test.system: PTPε (Homo sapiens, UniProt P23469)
# Sequence (P23469 20-700): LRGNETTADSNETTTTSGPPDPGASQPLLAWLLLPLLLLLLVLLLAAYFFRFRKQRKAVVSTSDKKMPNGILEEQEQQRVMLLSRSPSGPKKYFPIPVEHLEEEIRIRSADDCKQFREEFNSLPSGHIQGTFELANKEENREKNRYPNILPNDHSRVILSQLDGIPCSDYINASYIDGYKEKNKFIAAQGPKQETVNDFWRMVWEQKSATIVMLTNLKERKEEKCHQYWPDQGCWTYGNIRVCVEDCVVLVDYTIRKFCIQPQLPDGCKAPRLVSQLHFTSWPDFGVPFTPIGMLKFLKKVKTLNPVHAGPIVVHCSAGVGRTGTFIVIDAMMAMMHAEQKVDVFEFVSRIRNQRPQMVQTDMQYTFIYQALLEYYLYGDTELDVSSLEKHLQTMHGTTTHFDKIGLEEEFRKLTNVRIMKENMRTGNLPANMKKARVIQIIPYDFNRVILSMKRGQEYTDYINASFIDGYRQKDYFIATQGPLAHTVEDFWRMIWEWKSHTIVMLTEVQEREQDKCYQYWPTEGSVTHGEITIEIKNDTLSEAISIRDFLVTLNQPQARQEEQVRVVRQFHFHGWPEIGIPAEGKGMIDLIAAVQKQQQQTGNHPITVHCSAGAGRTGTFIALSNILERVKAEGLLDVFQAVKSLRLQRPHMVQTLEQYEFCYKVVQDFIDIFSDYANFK
pIC50: −log10 of the molar value.
measurement.label: pIC50

GET /values?readout=pIC50&item= Cc1c(Br)cc(NC(=O)C(c2ccccc2)S(=O)(=O)O)cc1Br (stereo not shown)
< 3.70

The reported numbers originate from patent US10532977B2.
